tested on: RARa:RXR (NR concentration 270 nM, RXRa partner concentration 90 nM); experiment: PBM binding z-score (relative to random genomic background probes); higher = stronger binding; sequences stand for … in GC…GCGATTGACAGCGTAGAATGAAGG
Could you label it 1 if measured PBM binding z-score is 1 or higher, and -1 otherwise?

Illustrative cases are given below, each with its answer.
{"columns": ["sequence.input", "measurement.target", "group.label"],
 "data": [
  ["CAAACTAGGTCACCGGAAGGTCAAAGCCCGCATG", "RARa:RXR (NR concentration 270 nM, RXRa partner concentration 90 nM)", 1],
  ["TCATATAGGTAAATGCTAGGTGAAAATCCGATCT", "RARa:RXR (NR concentration 270 nM, RXRa partner concentration 90 nM)", -1],
  ["CAGCCTAGGTCAGGGCCAGTAGAGGAGGAACGTT", "RARa:RXR (NR concentration 270 nM, RXRa partner concentration 90 nM)", -1],
  ["CCTTACGGGTTACGAGGTTATAGCACGACGAGCG", "RARa:RXR (NR concentration 270 nM, RXRa partner concentration 90 nM)", 1],
  ["AGTCAAAGTTCATCTAGGTAGCGTAAGATATGCT", "RARa:RXR (NR concentration 270 nM, RXRa partner concentration 90 nM)", 1]
]}

Now look at this entry.
Query :: Confirm if PBM binding z-score reported for the sequence TTACCAAGGCGAAGGTCGTTGATCCCTCTGTAGA is 1 or above.
Result :: 1
